Attribution: patent US20060063736A1

# TARGET_DESC: β1-4galactosyltransferase (β1-4GalT) (Bos taurus, UniProt P08037)
# Sequence (P08037 1-402): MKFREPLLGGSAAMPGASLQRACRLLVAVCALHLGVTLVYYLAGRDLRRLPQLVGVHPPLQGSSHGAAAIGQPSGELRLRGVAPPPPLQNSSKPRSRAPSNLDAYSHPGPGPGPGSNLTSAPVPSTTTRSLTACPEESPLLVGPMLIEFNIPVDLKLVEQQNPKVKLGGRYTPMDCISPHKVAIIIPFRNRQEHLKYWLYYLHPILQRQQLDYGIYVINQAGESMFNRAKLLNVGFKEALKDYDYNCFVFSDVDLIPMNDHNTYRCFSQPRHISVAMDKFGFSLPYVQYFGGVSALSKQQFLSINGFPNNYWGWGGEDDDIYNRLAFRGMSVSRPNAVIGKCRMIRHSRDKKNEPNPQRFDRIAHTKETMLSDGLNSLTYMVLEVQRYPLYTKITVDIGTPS
Overview of recorded IC50 for various compounds

COMPOUND	TARGET_DESC	MEASURED_PROPERTY	MEASURED
O=c1ccn([C@@H]2O[C@H](CON=Cc3ccc(O)c(O)c3O)[C@@H](O)[C@H]2O)c(=O)[nH]1 [1-68A]	β1-4galactosyltransferase (β1-4GalT) (Bos taurus, UniProt P08037)	IC50	> 500 µM

Request: Please give the measured IC50 for this compound: O=C(CON=Cc1ccc(O)c(O)c1O)NC[C@H]1O[C@@H](n2ccc(=O)[nH]c2=O)[C@H](O)[C@@H]1O [2-68A]
Response: > 500 µM

====

# TARGET_DESC: α1-3galactosyltransferase (α1-3GalT) (Sus scrofa)
# Sequence (P50127 whole entry): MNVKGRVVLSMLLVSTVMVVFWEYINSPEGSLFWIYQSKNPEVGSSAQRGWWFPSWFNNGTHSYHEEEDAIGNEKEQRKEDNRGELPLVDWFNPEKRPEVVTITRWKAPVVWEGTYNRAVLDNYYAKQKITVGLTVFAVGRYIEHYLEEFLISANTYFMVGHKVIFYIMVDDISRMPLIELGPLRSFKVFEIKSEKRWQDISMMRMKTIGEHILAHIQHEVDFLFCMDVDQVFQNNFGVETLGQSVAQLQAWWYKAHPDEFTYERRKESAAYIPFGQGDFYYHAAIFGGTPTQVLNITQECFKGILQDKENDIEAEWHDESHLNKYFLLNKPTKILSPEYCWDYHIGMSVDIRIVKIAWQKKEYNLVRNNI
MEASURED_PROPERTY: IC50

COMPOUND	MEASURED
O=C(CON=Cc1ccc(O)c(O)c1O)NC[C@H]1O[C@@H](n2ccc(=O)[nH]c2=O)[C@H](O)[C@@H]1O [2-68A]	> 500 µM

The record that follows has no IC50 shown yet.
Request: Reported IC50 for α1-3galactosyltransferase (α1-3GalT) (Sus scrofa), given O=c1ccn([C@@H]2O[C@H](CON=Cc3ccc(O)c(O)c3O)[C@@H](O)[C@H]2O)c(=O)[nH]1 [1-68A] ?
Response: > 500 µM

====

# TARGET_DESC: mppGalNAcT-4 (Mus musculus)
# Construct: plasmids encoding truncated secreted ppGalNAcTs-1 to −5, -7, -10 and -11
# Sequence (O08832 36-578 limits assumed): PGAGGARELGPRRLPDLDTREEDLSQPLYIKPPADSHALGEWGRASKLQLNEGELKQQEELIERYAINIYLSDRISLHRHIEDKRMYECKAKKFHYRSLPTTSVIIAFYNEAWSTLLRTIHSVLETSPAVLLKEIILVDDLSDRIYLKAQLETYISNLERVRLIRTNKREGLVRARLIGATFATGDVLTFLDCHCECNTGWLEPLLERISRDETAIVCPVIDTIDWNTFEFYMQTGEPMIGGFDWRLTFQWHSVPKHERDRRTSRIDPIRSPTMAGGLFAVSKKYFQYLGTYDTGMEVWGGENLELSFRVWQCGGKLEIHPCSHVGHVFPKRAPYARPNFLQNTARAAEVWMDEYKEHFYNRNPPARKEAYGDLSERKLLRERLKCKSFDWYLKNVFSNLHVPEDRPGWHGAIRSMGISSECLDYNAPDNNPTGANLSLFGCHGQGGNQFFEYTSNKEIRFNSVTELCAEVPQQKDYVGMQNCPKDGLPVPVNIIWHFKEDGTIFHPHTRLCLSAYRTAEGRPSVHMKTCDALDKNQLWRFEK
# ASSAY_EXPLANATION: ELLA for ppGalNAcTs, mppGalNAcT-4
# STUDY_CONDITIONS: 20 μM UDP-GalNAc, 50 μM EA2 peptide 4
Overview of recorded IC50 for various molecules
Quick reminder: number only, in µM, skip the unit.

MOLECULE	IC50 / µM
O=c1ccn([C@@H]2O[C@H](CON=Cc3ccc(O)c(O)c3O)[C@@H](O)[C@H]2O)c(=O)[nH]1 [1-68A]	30

The record that follows has no IC50 shown yet.
Request: Please give the measured IC50 for this molecule: O=C(CON=Cc1ccc(O)c(O)c1O)NC[C@H]1O[C@@H](n2ccc(=O)[nH]c2=O)[C@H](O)[C@@H]1O [2-68A]
Response: 20

====

# TARGET_DESC: rppGalNAcT-10 (Rattus norvegicus, UniProt Q925R7)
# Construct: plasmids encoding truncated secreted ppGalNAcTs-1 to −5, -7, -10 and -11; made in house; host or cells: COS-7
# Sequence (Q925R7 32-603 limits assumed): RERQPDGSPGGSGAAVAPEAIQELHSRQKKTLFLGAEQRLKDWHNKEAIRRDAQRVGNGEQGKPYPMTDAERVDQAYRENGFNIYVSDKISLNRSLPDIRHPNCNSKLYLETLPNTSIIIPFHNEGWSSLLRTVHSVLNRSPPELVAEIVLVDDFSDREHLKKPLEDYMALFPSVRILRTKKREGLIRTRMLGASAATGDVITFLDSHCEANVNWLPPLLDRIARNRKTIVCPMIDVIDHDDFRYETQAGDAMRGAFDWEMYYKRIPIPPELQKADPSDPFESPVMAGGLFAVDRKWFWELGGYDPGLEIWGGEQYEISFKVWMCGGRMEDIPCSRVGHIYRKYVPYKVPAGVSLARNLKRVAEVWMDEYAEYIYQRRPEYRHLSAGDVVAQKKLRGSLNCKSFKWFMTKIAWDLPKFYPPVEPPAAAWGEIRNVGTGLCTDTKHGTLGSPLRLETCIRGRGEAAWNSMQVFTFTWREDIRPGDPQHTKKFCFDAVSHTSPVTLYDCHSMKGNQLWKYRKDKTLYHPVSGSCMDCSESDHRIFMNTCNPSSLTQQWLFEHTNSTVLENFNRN
# ASSAY_EXPLANATION: Radiolabel capture assay, rppGalNAcT-10
# Assay type: biochemical
# STUDY_CONDITIONS: MUC5AC glycopeptide
MEASURED_PROPERTY: IC50 (µM)
Quick reminder: number only, in µM, skip the unit.

MOLECULE	MEASURED
O=c1ccn([C@@H]2O[C@H](CON=Cc3ccc(O)c(O)c3O)[C@@H](O)[C@H]2O)c(=O)[nH]1 [1-68A]	7

Request: Reported IC50 for rppGalNAcT-10 (Rattus norvegicus, UniProt Q925R7), given O=C(CON=Cc1ccc(O)c(O)c1O)NC[C@H]1O[C@@H](n2ccc(=O)[nH]c2=O)[C@H](O)[C@@H]1O [2-68A] ?
Response: 6

====

# TARGET_DESC: mppGalNAcT-3 (Mus musculus)
# Construct: plasmids encoding truncated secreted ppGalNAcTs-1 to −5, -7, -10 and -11
# Sequence (P70419 38-633 limits assumed): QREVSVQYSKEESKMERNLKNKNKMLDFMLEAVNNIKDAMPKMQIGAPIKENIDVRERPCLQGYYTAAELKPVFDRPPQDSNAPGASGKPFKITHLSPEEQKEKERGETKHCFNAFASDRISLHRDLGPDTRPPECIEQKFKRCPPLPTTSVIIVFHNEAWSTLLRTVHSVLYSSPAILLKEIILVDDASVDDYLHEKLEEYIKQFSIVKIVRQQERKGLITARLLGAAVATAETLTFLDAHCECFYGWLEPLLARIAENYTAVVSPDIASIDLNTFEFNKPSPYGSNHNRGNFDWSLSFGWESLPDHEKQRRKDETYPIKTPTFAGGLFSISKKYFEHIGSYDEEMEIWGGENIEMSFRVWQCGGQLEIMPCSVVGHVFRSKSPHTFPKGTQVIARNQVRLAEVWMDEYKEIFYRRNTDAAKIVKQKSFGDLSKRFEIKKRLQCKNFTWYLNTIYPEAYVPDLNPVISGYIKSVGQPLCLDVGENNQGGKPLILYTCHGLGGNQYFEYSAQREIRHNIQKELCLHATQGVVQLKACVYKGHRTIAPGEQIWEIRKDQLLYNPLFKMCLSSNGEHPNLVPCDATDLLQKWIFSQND
# ASSAY_EXPLANATION: ELLA for ppGalNAcTs, mppGalNAcT-3
# STUDY_CONDITIONS: 20 μM UDP-GalNAc, 50 μM EA2 peptide 4
Overview of recorded pIC50 for various molecules
# pIC50: negative log10 of molar concentration; output just the value

MOLECULE	pIC50
O=c1ccn([C@@H]2O[C@H](CON=Cc3ccc(O)c(O)c3O)[C@@H](O)[C@H]2O)c(=O)[nH]1 [1-68A]	4.40

The record that follows has no pIC50 shown yet.
Request: Please give the measured pIC50 for this molecule: O=C(CON=Cc1ccc(O)c(O)c1O)NC[C@H]1O[C@@H](n2ccc(=O)[nH]c2=O)[C@H](O)[C@@H]1O [2-68A]
Response: 4.42

====

# TARGET_DESC: rppGalNAcT-7 (Rattus norvegicus, UniProt Q9R0C5)
# Construct: plasmids encoding truncated secreted ppGalNAcTs-1 to −5, -7, -10 and -11
# Sequence (Q9R0C5 30-657 limits assumed): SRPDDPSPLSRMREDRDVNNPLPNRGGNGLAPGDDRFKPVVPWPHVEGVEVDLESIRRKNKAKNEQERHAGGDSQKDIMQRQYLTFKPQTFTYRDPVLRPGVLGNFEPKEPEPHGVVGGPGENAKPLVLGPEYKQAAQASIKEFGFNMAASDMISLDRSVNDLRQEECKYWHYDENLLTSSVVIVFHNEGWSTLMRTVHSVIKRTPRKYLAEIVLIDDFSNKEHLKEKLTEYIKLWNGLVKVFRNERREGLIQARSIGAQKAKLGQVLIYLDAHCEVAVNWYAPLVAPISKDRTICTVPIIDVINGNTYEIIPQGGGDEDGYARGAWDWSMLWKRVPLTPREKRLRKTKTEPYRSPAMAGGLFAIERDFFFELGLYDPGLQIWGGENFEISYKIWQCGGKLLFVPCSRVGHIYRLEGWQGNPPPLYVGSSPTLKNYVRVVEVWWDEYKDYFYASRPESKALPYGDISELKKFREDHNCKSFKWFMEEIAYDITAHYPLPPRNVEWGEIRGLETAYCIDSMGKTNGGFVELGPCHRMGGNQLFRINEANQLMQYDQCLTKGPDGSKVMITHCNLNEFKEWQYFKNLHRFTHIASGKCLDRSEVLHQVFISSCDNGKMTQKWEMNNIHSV
# ASSAY_EXPLANATION: Radiolabel capture assay, rppGalNAcT-7
# STUDY_CONDITIONS: MUC5AC glycopeptide
MEASURED_PROPERTY: pIC50
# pIC50: negative log10 of molar concentration; output just the value

COMPOUND	pIC50
O=C(CON=Cc1ccc(O)c(O)c1O)NC[C@H]1O[C@@H](n2ccc(=O)[nH]c2=O)[C@H](O)[C@@H]1O [2-68A]	4.57

The record that follows has no pIC50 shown yet.
Request: Please give the measured pIC50 for this compound: O=c1ccn([C@@H]2O[C@H](CON=Cc3ccc(O)c(O)c3O)[C@@H](O)[C@H]2O)c(=O)[nH]1 [1-68A]
Response: 4.66

====

# TARGET_DESC: mppGalNAcT-1 (Mus musculus, UniProt O08912)
# Construct: plasmids encoding truncated secreted ppGalNAcTs-1 to −5, -7, -10 and -11; made in house; host or cells: COS-7
# Sequence (O08912 29-559 limits assumed): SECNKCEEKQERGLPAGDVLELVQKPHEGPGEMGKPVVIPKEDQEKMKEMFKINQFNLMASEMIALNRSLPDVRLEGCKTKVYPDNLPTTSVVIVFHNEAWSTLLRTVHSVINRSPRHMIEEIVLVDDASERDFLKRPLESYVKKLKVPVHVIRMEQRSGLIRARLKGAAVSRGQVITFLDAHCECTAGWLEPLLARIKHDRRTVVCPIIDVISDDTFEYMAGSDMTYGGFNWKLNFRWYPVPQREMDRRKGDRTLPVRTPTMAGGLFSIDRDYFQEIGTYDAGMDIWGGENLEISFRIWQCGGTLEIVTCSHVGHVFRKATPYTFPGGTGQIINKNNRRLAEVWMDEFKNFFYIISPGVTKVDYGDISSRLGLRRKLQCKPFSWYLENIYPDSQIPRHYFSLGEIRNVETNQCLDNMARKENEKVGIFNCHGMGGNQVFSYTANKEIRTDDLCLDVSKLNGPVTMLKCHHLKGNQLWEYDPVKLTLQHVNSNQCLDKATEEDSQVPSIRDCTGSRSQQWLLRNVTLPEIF
# ASSAY_EXPLANATION: ELLA for ppGalNAcTs, mppGalNAcT-1
# Type: biochemical, murine
# STUDY_CONDITIONS: mppGalNAcT-1, with respect to UDP-GalNAc; read-out: KI versus UDP-GalNAc
Overview of recorded pKi for various compounds
# pKi: negative log10 of molar concentration; output just the value

COMPOUND	pKi
O=c1ccn([C@@H]2O[C@H](CON=Cc3ccc(O)c(O)c3O)[C@@H](O)[C@H]2O)c(=O)[nH]1 [1-68A]	5.11

The record that follows has no pKi shown yet.
Request: Please give the measured pKi for this compound: O=C(CON=Cc1ccc(O)c(O)c1O)NC[C@H]1O[C@@H](n2ccc(=O)[nH]c2=O)[C@H](O)[C@@H]1O [2-68A]
Response: 5.11
